# STUDY TARGET: RSV prefusion F (preF), DS-Cav1 (Respiratory Syncytial Virus)
# ASSAY SUMMARY: BLI, IgG on anti-human IgG sensor, 100 nM antigen

| BINDER | Kd / nM |
| --- | --- |
| ADI-41212 (antibody, V domains shown) VH: EVQLLESGAEVKKPGASVKVSCKASGYTFTDYYIHWVRQAPGQGLEWMGRINPKNGDAIYAQNFQGRVTMTRDTSISTAYMEVSRLTSDDTAVYYCARDQMWLVLDYWGQGTLVTVSS VL: QSALTQPASVSGSPGQSITISCTGTSSDVGGYDYVSWYQQHPGKAPKLMIHDVTNRPSGISHRFSGSKSGNTASLTISGLQAGDEADYYCSSYTRSNTKVFGTGTKVTVL | 3.18 |
| ADI-41181 (antibody, V domains shown) VH: QVQLVQSGAEVKKPGSSVKVSCKASGGSFSSYTLNWVRQAPGQGLEWMGRFVPIVGIANYAQKFQGRVTITADKSTSTVYMELSSLRSEDTAVYYCATAPTAYCSGDCYSLFDPWGQGTLVTVSS VL: QSVLIQPASVSGSPGQSITISCTGISSDVGSYNLVSWYQQHPGKAPKLIIYEVNKRPSGVSNRFSGSKSGNTASLTISGLQAEDEADYYCCSYAVSRTSLYVFGTGTKVTVL | 1.95 |

Numbers sourced from patent US20260258115A1.
